# Test system: MAb M75
# Experimental details: Competition ELISA with M75 on adsorbed GST-MN
# Format: binding, mouse
# Method: ELISA. Purified GST-MN [Zavada et al. (1993), supra] at concentration 10 ng/ml in carbonate buffer pH 9.2 was adsorbed for 3 h in Maxisorb strips (NUNC). After washing and blocking (1 h) with 0.05% Tween 20 in PBS, 50 μl/well of the antibody+antigen mixtures were added. […] These mixtures were adsorbed for 1.5 h, followed by washing with Tween-PBS. Bound antibody was detected by antimouse IgG conjugate with peroxidase (SwAM-Px, SEVAC, Prague), diluted 1:1000. […]
Metric name: serological activity in competition ELISA with M75

* PGEEDLPGEEDL [SEQ ID NO: 124] | serologically active
* EDLPGEEDLP [SEQ ID NO: 121] | serologically active
* LPGEEDLPGEED [SEQ ID NO: 123] | serologically active

----------
# Test system: MAb M75
# Experimental details: Competition ELISA with M75 on adsorbed GST-MN
# Type: binding, mouse
Metric name: serological activity in competition ELISA with M75

- DLPGEEDLPGEE [SEQ ID NO: 122]: serologically active
- EEDLPGEEDLPG [SEQ ID NO: 120]: serologically active
- GEEDLPGEEDLP [SEQ ID NO: 119]: serologically active
